# System: KM12
# methodNotes: NCI tumour cell line growth inhibition, 48 h
Active and inactive are the calls of the source. Rule as the data show it: active = GI50 up to about 1.1 µM and inactive = higher.
Response enum: T for active, F for inactive

{"compound": "COc1ccc(-c2cc(-c3ccc(Nc4ccnc5cc(Cl)ccc45)cc3)[nH]c(=O)c2C#N)cc1", "categoryLabel": "F"}
{"compound": "Cc1cc2nc3c(=O)n(C)c(=O)nc-3n(-c3ccc(Cl)cc3)c2cc1C", "categoryLabel": "F"}

Attention now shifts to the item below.
Kindly provide the recorded test outcome for the following compound: CC(Oc1ccc(OCC2CCCCC2)cc1)C(=O)N(CCO)CCO (stereo not given)
F

* * *

# System: A549
# methodNotes: NCI tumour cell line growth inhibition, 48 h
The source made the active and inactive calls. Rule as the data show it: active = GI50 up to about 1.1 µM and inactive = higher.
assayReadout: GI50

{"compound": "Cc1[nH]c2c(C)ccc(C)c2c1CC(=O)O", "measurement": "42.3 µM (inactive)"}
{"compound": "CC(C)=NN/C=N\\C(C#N)=C(/N)C#N", "measurement": "> 100 µM (inactive)"}

Provide each entry's GI50 from the list below.
1. Nc1c(-c2nc3ccccc3s2)c2ccc([N+](=O)[O-])cc2c(=O)n1-c1cccc(C(=O)O)c1
2. COc1ccc(-c2cc(-c3ccc(Nc4ccnc5cc(Cl)ccc45)cc3)[nH]c(=O)c2C#N)cc1
3. O=c1c(Br)cc2nc3ccccc3sc-2c1Br
4. CCOC(=O)c1ccc(/N=N\c2ccc(N(CCC#N)CCC#N)cc2C)cc1

1: 34.9 µM (inactive); 2: > 100 µM (inactive); 3: > 94.8 µM (inactive); 4: > 100 µM (inactive)

Provide each entry's GI50 from the list below.
1. Cc1ccc(S(=O)(=O)NNC(=O)Nc2ccc([N+](=O)[O-])cc2)cc1
2. N#Cc1c(Cl)nc2ccccc2c1N=[N+]=[N-]
3. O=C1C(=Cc2ccc([N+](=O)[O-])o2)C(=O)N(CCc2ccccc2)S(=O)(=O)N1CCc1ccccc1

35.6 µM (inactive)
16.6 µM (inactive)
> 100 µM (inactive)

Provide each entry's GI50 from the list below.
1. Cc1ccc(C(=O)C2=CN=C3C(=O)N(c4ccccc4)N(C)C3(C)C2=N)cc1 (stereo unspecified)
2. Cc1cn([C@H]2C[C@](C)(CO)N(C)O2)c(=O)[nH]c1=O

1. > 100 µM (inactive)
2. > 100 µM (inactive)
